# test: Viability qHTS for spleen associated tyrosine kinase inhibitor (SYKi) drug resistant MV4-11 cells (AID 1963824); note: nearly all actives have a fitted effect of over 35% in size; note: potency is the fitted concentration of half-maximal effect
# settings: SYKi-resistant MV4-11 viability, CellTiter-Glo, 72 h; series mostly up to 45 µM
Records with an inconclusive call do not appear. Active and inactive are the calls of the source. Calls come from the whole dose curve; as a rule, active = well fitted cell-killing curve with a large enough effect; inconclusive = small, poorly fitted or top-dose-only effect, or effect the other way; inactive = no such curve, though single readings can be large or run the other way.
measured.quantity: Potency

Consider the worked cases shown below.
molecule="O=C(/C=C/c1ccc(O)cc1)O[C@H]1[C@H](OC2CCCCC2O)O[C@H](CO)[C@@H](O)[C@@H]1O (some centres undefined)" measured_quantity=Potency reported_result=inactive
molecule=OC[C@H]1O[C@@H](OCCc2ccccc2)[C@H](O[C@@H]2OC[C@@H](O)[C@H](O)[C@H]2O)[C@@H](O)[C@@H]1O measured_quantity=Potency reported_result=inactive
molecule="CCO[C@@H]1O[C@H](C(COCc2ccccc2)OCc2ccccc2)[C@H](OCc2ccccc2)[C@H]1O (some centres undefined)" measured_quantity=Potency reported_result="11.9 µM (active)"
molecule=Cc1ccc(C)c(NS(=O)(=O)c2cc(C(=O)Nc3ccccc3-c3ccccc3)ccc2C)c1 measured_quantity=Potency reported_result="16.4 µM (active)"
molecule=CC(C)n1c(=O)cc(N[C@@H](C)c2ccccc2)[nH]c1=O measured_quantity=Potency reported_result="11.8 µM (active)"

[ask] Entry NCC1CCN(c2nccc(-c3ccc4ccccc4c3)n2)CC1 has what Potency?
[reply] 1.16 µM (active)

[ask] Which measured Potency value corresponds to C=C[C@@]12COC(=O)C(=C)[C@@H]1[C@@H](O)[C@H](C(=C)C(=O)OC)[C@@H](O)C2 ?
[reply] inactive

[ask] I'd like to know its Potency. The molecule in question is O=C(CCCCCCC(=O)N/N=C/c1ccc(N(c2ccccc2)c2ccccc2)cc1)NO
[reply] 4.17 µM (active)

[ask] Would you mind telling me what Potency value was observed for O=c1[nH]c(=O)c2ccccc2o1 ?
[reply] inactive

---

# test: Viability qHTS for spleen associated tyrosine kinase inhibitor (SYKi) drug resistant MV4-11 cells (AID 1963824); note: nearly all actives have a fitted effect of over 35% in size
# settings: SYKi-resistant MV4-11 viability, CellTiter-Glo, 72 h; series mostly up to 45 µM
Records with an inconclusive call do not appear. Calls of active or inactive are those of the source. Calls come from the whole dose curve; as a rule, active = well fitted cell-killing curve with a large enough effect; inconclusive = small, poorly fitted or top-dose-only effect, or effect the other way; inactive = no such curve, though single readings can be large or run the other way.
Reply using exactly one outcome from active, inactive

Past entries and their recorded results:
compound=Cc1ccc2nc(NC(=O)CSc3nc4c(c(=O)n3-c3ccccc3)SCC4)sc2c1 cat=inactive
compound=NC(=O)NS(=O)(=O)c1ccc(N)cc1 cat=inactive
compound=Nc1ncn([C@@H]2O[C@H](CO)[C@@H](O)[C@H]2O)c(=O)n1 cat=active
compound="CCCC(NC(=O)/C(C#N)=C/c1cccc(Br)n1)c1ccccc1 (stereo not given)" cat=active

[ask] Hey, what did the test say about CN(C)c1nc(NC2CCC(NCCc3ccc(Br)cc3OC(F)(F)F)CC2)nc2ccccc12 (stereo not given) ?
[reply] active

---

# test: Quantitative highthroughput screen to assess conditional lethalithy of NOMO1 cells grown in RPMI1640 with untreated serum (RPMI+s) (AID 1963876); note: nearly all actives have a fitted effect of over 35% in size
# settings: NOMO1 AML cells in RPMI+serum, CellTiter-Glo viability, 48 h; series mostly up to 45.8 µM
Inconclusive results are not listed. Activity calls are given as the source filed them. Calls follow the shape of the dose curve; as a rule, active = well fitted cell-killing curve with a large enough effect; inconclusive = small, poorly fitted or top-dose-only effect; inactive = flat fitted curve, though single readings scatter.
Mark one answer only. Choices: T (active), F (inactive)

Solved entries:
compound="Cc1nn(C)c2c1C(c1ccc(C(F)(F)F)cc1)C(C#N)=C(N)O2 (stereo not given)" cat=F
compound=Nc1ncnc2c1ncn2[C@@H]1O[C@H](CO)C[C@@H]1O cat=F
compound=CC(C)(F)C[C@H](N[C@@H](c1ccc(-c2ccc(S(C)(=O)=O)cc2)cc1)C(F)(F)F)C(=O)NC1(C#N)CC1 cat=F
compound=CC(C)c1ccc2oc3nc(N)c(C(=O)O)cc3c(=O)c2c1 cat=F

[ask] How was O=C1C(Cl)=C(NCCN2CCOCC2)C(=O)c2ncccc21 classified in this test?
[reply] T
